Each entry below lists one item and its recorded inhibition value.
# system under test: Epidermal growth factor receptor (Homo sapiens) (UniProt P00533)
# Sequence (P00533 whole entry): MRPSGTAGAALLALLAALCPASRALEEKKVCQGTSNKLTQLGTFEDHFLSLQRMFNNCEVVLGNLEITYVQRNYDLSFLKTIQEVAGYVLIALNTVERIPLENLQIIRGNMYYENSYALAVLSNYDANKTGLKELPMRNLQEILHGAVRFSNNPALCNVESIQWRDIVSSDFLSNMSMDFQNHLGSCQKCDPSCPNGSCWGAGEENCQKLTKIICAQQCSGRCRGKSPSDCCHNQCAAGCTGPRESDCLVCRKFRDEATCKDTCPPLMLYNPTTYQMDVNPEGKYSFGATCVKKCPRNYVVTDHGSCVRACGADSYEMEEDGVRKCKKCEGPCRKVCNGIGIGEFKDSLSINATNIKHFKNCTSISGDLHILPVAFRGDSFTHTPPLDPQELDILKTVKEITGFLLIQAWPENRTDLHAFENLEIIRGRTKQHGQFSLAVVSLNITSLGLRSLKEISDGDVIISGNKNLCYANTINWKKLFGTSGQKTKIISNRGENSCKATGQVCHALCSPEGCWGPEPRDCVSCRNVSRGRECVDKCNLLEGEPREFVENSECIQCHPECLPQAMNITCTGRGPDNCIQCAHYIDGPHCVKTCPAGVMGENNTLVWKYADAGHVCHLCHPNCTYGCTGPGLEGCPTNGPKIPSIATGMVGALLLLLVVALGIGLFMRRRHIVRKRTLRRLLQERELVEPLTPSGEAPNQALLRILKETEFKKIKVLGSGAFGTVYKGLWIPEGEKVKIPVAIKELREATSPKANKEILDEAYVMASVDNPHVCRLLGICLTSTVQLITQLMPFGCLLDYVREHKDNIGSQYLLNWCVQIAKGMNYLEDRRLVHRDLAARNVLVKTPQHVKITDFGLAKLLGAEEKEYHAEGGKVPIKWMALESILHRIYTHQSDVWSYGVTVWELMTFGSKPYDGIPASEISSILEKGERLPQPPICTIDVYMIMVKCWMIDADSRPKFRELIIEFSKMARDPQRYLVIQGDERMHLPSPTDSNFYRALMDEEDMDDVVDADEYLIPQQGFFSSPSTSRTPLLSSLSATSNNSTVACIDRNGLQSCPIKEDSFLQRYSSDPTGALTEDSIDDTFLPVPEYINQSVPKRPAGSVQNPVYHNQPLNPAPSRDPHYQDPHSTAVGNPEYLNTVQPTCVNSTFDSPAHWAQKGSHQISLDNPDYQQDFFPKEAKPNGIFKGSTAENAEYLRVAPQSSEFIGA
# assay procedure: Inhibition of EGFR expressed in human HeLa cells at 10 ug/mL by AP1-luciferase reporter gene assay relative to control
# Format: cell-based
Entry rule: numbers only, all in %.

// below: answered compounds
COC(=O)[C@@H]1C[C@@]2(Br)c3ccccc3N3C(=N)[C@H](C(C)(C)C)N1[C@H]32
0
C=CC[C@@]12C[C@@H](C(=O)OC)N3[C@@H]1N(C(=N)C31CCCCC1)c1ccccc12
52
COC(=O)[C@@H]1C[C@@]2(Br)c3cc(Br)ccc3N3C(=N)[C@H](C(C)(C)C)N1[C@H]32
0

# input Write down inhibition measured for item COC(=O)[C@@H]1C[C@@]2(Br)c3cc(Br)ccc3N3C(=N)C(C)(C)N1[C@H]32
# output 45

# input Write down inhibition measured for item COC(=O)[C@@H]1C[C@@]2(Br)c3cc(Br)ccc3N3C(=N)C4(CCCCC4)N1[C@H]32
# output 83

# input Write down inhibition measured for item COC(=O)[C@@H]1C[C@]2(CC=C(C)C)c3ccccc3N3C(=N)[C@@H](Cc4ccccc4)N1[C@@H]32
# output 0

# input Write down inhibition measured for item COC(=O)[C@@H]1C[C@@]2(CC=C(C)C)c3ccccc3N3C(=N)[C@H](C(C)(C)C)N1[C@H]32
# output 0

# input Write down inhibition measured for item COC(=O)[C@@H]1C[C@@]2(CC=C(C)C)c3ccccc3N3C(=N)C(C)(C)N1[C@H]32
# output 0

# input Write down inhibition measured for item COC(=O)[C@@H]1C[C@@]2(CC=C(C)C)c3ccccc3N3C(=N)[C@H](Cc4ccccc4)N1[C@H]32
# output 20

# input Write down inhibition measured for item COC(=O)[C@@H]1C[C@@]2(CC=C(C)C)c3ccccc3N3C(=N)[C@H](c4ccccc4)N1[C@H]32
# output 13

---

Each entry below lists one item and its recorded GI50 value.
# Tested on: A549
# assay procedure: Cytotoxicity against human A549 cells after 48 hrs by sulforhodamine B assay
# Assay type: functional
# test context: A549, 48 h

// below: answered compounds
C=CC[C@@]12C[C@@H](C(=O)OC)N3[C@@H]1N(C(=N)C31CCCCC1)c1ccccc12
23.3 µM
COC(=O)[C@@H]1C[C@@]2(Br)c3cc(Br)ccc3N3C(=N)C(C)(C)N1[C@H]32
> 100 µM

Query compound follows.
# input Write down GI50 measured for item COC(=O)[C@@H]1C[C@@]2(CC=C(C)C)c3ccccc3N3C(=N)[C@H](c4ccccc4)N1[C@H]32
# output > 100 µM

---

Each entry below lists one item and its recorded inhibition value.
# system under test: Hypoxia-inducible factor 1-alpha (Homo sapiens) (UniProt Q16665)
# Sequence (Q16665 whole entry, looked up): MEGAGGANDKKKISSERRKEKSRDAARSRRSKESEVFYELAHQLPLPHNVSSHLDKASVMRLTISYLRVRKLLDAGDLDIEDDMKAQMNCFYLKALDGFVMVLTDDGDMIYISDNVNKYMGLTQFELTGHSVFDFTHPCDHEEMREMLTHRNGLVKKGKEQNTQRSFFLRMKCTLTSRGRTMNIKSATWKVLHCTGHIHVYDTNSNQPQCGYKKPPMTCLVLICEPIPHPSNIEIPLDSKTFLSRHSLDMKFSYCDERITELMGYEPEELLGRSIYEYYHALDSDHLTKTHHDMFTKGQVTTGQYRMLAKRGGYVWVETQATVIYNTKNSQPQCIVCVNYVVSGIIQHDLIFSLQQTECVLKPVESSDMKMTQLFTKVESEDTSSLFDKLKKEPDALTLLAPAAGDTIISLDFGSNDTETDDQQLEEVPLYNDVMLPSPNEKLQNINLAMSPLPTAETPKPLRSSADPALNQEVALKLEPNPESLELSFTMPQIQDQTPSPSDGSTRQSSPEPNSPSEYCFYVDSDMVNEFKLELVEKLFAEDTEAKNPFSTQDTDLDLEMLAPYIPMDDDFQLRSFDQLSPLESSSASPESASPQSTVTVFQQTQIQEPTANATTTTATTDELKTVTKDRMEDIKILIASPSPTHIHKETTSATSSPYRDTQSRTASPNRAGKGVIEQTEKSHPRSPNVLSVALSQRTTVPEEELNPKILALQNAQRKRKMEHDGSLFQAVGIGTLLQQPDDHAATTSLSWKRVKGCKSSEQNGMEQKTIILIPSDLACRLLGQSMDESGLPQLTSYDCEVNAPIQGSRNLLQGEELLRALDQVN
# assay procedure: Inhibition of HIF1alpha expressed in human HeLa cells at 10 ug/mL by HIF1-luciferase reporter gene assay relative to control
# Format: cell-based
Entry rule: numbers only, all in %.

COC(=O)[C@@H]1C[C@@]2(CC=C(C)C)c3ccccc3N3C(=N)[C@H](c4ccccc4)N1[C@H]32
78
COC(=O)[C@@H]1C[C@@]2(CC=C(C)C)c3ccccc3N3C(=N)[C@H](C(C)(C)C)N1[C@H]32
83
COC(=O)[C@@H]1C[C@@]2(Br)c3cc(Br)ccc3N3C(=N)[C@H](C(C)(C)C)N1[C@H]32
73
COC(=O)[C@@H]1C[C@@]2(CC=C(C)C)c3ccccc3N3C(=N)C(C)(C)N1[C@H]32
73
COC(=O)[C@@H]1C[C@@]2(Br)c3ccccc3N3C(=N)[C@H](C(C)(C)C)N1[C@H]32
70
COC(=O)[C@@H]1C[C@@]2(Br)c3cc(Br)ccc3N3C(=N)C(C)(C)N1[C@H]32
55
COC(=O)[C@@H]1C[C@@]2(CC=C(C)C)c3ccccc3N3C(=N)[C@H](Cc4ccccc4)N1[C@H]32
78

Query compound follows.
# input Write down inhibition measured for item COC(=O)[C@@H]1C[C@]2(CC=C(C)C)c3ccccc3N3C(=N)[C@@H](Cc4ccccc4)N1[C@@H]32
# output 61

---

Each entry below lists one item and its recorded TGI value.
# Test system: A549
# assay procedure: Cytotoxicity against human A549 cells after 48 hrs by sulforhodamine B assay
# Format: functional
# test context: A549, 48 h
Entry rule: numbers only, all in µM.

COC(=O)[C@@H]1C[C@@]2(Br)c3cc(Br)ccc3N3C(=N)C4(CCCCC4)N1[C@H]32
10.8

Query molecule follows.
# input Write down TGI measured for item COC(=O)[C@@H]1C[C@@]2(CC=C(C)C)c3ccccc3N3C(=N)[C@H](Cc4ccccc4)N1[C@H]32
# output 24.1

---

# Tested on: MDA-MB-231
# assay procedure: Cytotoxicity against human MDA-MB-231 cells after 48 hrs by sulforhodamine B assay
# Assay type: functional
# test context: MDA-MB-231, 48 h
Kindly apply the following: Criterion met if GI50 is less than 20 µM, Criterion not met in every other case.

// below: answered compounds
COC(=O)[C@@H]1C[C@@]2(CC=C(C)C)c3ccccc3N3C(=N)[C@H](c4ccccc4)N1[C@H]32
Criterion not met
COC(=O)[C@@H]1C[C@@]2(Br)c3ccccc3N3C(=N)[C@H](C(C)(C)C)N1[C@H]32
Criterion met

# input # check: GI50 < 20 µM for COC(=O)[C@@H]1C[C@@]2(CC=C(C)C)c3ccccc3N3C(=N)[C@H](C(C)(C)C)N1[C@H]32
# output Criterion met

# input # check: GI50 < 20 µM for COC(=O)[C@@H]1C[C@@]2(CC=C(C)C)c3ccccc3N3C(=N)[C@H](Cc4ccccc4)N1[C@H]32
# output Criterion not met

# input # check: GI50 < 20 µM for C=CC[C@@]12C[C@@H](C(=O)OC)N3[C@@H]1N(C(=N)C31CCCCC1)c1ccccc12
# output Criterion not met

# input # check: GI50 < 20 µM for COC(=O)[C@@H]1C[C@]2(CC=C(C)C)c3ccccc3N3C(=N)[C@@H](Cc4ccccc4)N1[C@@H]32
# output Criterion met

# input # check: GI50 < 20 µM for COC(=O)[C@@H]1C[C@@]2(CC=C(C)C)c3ccccc3N3C(=N)C(C)(C)N1[C@H]32
# output Criterion met

# input # check: GI50 < 20 µM for COC(=O)[C@@H]1C[C@@]2(Br)c3cc(Br)ccc3N3C(=N)[C@H](C(C)(C)C)N1[C@H]32
# output Criterion not met
